Measured values drawn from ChEMBL document CHEMBL1770140 for this set.

experiment: Bioavailability in rat; assay type: ADME, organism-based; settings: in vivo
measured.parameter: bioavailability (%)

P: O=C(NO)C1(S(=O)(=O)c2ccc(OCCCn3nnc(-c4ccc(OC(F)(F)F)cc4)n3)cc2)CCOCC1
Q: O=C(NO)C1(S(=O)(=O)c2ccc(OCCCc3nnnn3-c3ccc(OC(F)(F)F)cc3)cc2)CCOCC1
R: COc1ccc(C(=O)N2CCN(c3ccc(S(=O)(=O)C4(C(=O)NO)CCOCC4)cc3)CC2)cc1
S: Cc1ccc(-c2nnnn2CCCOc2ccc(S(=O)(=O)C3(C(=O)NO)CCOCC3)cc2)nc1
INPUT: Please produce an ascending ranking of these compounds based on bioavailability. // format: requested-order list of labels
OUTPUT: S, Q, R, P
(S: 5%, Q: 7.3%, R: 14%, P: 32%)

====

biological target: Collagenase 3 (Homo sapiens, UniProt P45452); experiment: Inhibition of human MMP-13
measured.parameter: Ki (nM)

These solved cases illustrate the format of a correct answer.
>>> measured_number("CCN1CCC(C(=O)NO)(S(=O)(=O)c2ccc(OCCCc3nc(-c4ccc(OC(F)(F)F)cc4)no3)cc2)CC1")
2
>>> measured_number("Cc1ccc(-c2nnn(CCCOc3ccc(S(=O)(=O)C4(C(=O)NO)CCOCC4)cc3)n2)nc1")
0.66
>>> measured_number("O=C(NO)C1(S(=O)(=O)c2ccc(OCCCn3nnc(-c4ccc(OC(F)(F)F)cc4)n3)cc2)CCOCC1")
0.66

I: O=C(NO)C1(S(=O)(=O)c2ccc(OCCCc3nnnn3-c3ccc(OC(F)(F)F)cc3)cc2)CCOCC1
II: O=C(NO)C1(S(=O)(=O)c2ccc(OCCCn3cncc3-c3ccc(OC(F)(F)F)cc3)cc2)CCOCC1
INPUT: Would you mind telling me which has the lower recorded Ki between I and II ? In your reply, give the label of the chosen option.
OUTPUT: I
(I: 1.2 nM, II: 3.7 nM)

====

biological target: Collagenase 3 (Homo sapiens); test: Inhibition of human MMP-13
measured.parameter: pIC50
Note on pIC50: it is the negative log10 of concentration, concentration in mol/L.

INPUT: Query for Collagenase 3 (Homo sapiens): what pIC50 does the record show for COc1ccc(C(=O)N2CCN(c3ccc(S(=O)(=O)C4(C(=O)NO)CCOCC4)cc3)CC2)cc1 ?
OUTPUT: 9.15

====

target: Stromelysin-1 (Homo sapiens, UniProt P08254)
Sequence (P08254 whole entry): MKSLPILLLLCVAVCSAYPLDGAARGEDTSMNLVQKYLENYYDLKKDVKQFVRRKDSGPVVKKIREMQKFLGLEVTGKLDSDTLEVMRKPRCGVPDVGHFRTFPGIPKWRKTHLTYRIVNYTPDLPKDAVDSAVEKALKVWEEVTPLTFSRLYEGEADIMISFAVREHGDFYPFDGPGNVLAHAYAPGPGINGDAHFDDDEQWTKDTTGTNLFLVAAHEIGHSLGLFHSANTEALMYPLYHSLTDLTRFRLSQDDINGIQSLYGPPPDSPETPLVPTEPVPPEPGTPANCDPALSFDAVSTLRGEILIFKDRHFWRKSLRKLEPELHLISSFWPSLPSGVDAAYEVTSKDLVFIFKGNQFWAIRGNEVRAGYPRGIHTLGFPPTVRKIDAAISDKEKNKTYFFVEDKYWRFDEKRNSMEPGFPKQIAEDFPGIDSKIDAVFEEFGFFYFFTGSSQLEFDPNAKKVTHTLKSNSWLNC
pKi: −log10 of the molar value.
measured.parameter: pKi

>>> measured_number("O=C(NO)C1(S(=O)(=O)c2ccc(OCCCc3nnnn3-c3ccc(OC(F)(F)F)cc3)cc2)CCOCC1")
8.00
>>> measured_number("CCN1CCC(C(=O)NO)(S(=O)(=O)c2ccc(OCCCc3nc(-c4ccc(OC(F)(F)F)cc4)no3)cc2)CC1")
7.43
>>> measured_number("O=C(NO)C1(S(=O)(=O)c2ccc(OCCCc3nc(-c4ccc(OC(F)(F)F)cc4)no3)cc2)CCOCC1")
7.51
>>> measured_number("Cc1ccc(-c2nnn(CCCOc3ccc(S(=O)(=O)C4(C(=O)NO)CCOCC4)cc3)n2)nc1")
7.36

a: O=C(NO)C1(S(=O)(=O)c2ccc(OCCCn3cnc(-c4ccc(OC(F)(F)F)cc4)c3)cc2)CCOCC1
b: Cc1ccc(-c2nnnn2CCCOc2ccc(S(=O)(=O)C3(C(=O)NO)CCOCC3)cc2)nc1
INPUT: Would you mind telling me which has the lower recorded pKi between a and b ? In your reply, give the label of the chosen option.
OUTPUT: a
(a: 7.23, b: 8.52)
